# Target under test: T1, mouse apoptosis inhibitor of macrophage (AIM), wild-type recombinant (mouse, UniProt Q9QWK4 22-352)
# T1 construct: mature; also called rAIM; mouse AIM
# T1 sequence (looked up): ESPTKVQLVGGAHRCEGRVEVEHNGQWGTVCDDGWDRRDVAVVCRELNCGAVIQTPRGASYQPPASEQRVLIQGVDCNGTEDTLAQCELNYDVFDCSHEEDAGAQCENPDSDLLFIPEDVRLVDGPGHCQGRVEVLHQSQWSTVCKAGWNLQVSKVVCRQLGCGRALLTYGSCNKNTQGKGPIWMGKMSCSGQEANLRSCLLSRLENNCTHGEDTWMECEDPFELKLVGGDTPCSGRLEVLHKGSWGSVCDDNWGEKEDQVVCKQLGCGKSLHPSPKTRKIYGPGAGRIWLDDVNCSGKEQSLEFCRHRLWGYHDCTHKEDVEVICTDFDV
# Method summary: ELISA, DAMP coated at 2 µg/mL, AIM in solution (FIG. 4)
Reported property: binding result

>>> experimental_result("mouse S100A8 (9877-S8-050, R&D Systems) (ligand, UniProt P27005 1-89, looked up) MPSELEKALSNLIDVYHNYSNIQGNHHALYKNDFKKMVTTECPQFVQNINIENLFRELDINSDNAINFEEFLAMVIKVGVASHKDSHKE")
"binds"
>>> experimental_result("mouse S100A8/A9 (8916-S8-050, R&D Systems) (ligand, Complex of S100A8 and S100A9 as bought; also called S100A8/9) chain 1: MPSELEKALSNLIDVYHNYSNIQGNHHALYKNDFKKMVTTECPQFVQNINIENLFRELDINSDNAINFEEFLAMVIKVGVASHKDSHKE chain 2: MANKAPSQMERSITTIIDTFHQYSRKEGHPDTLSKKEFRQMVEAQLATFMKKEKRNEALINDIMEDLDTNQDNQLSFEECMMLMAKLIFACHEKLHENNPRGHGHSHGKGCGK")
"binds"
>>> experimental_result("mouse PRDX6 with a HA tag (generated in house) (ligand, UniProt O08709 1-224, looked up, also called PRDXs; not shown: HA tag) MPGGLLLGDEAPNFEANTTIGRIRFHDFLGDSWGILFSHPRDFTPVCTTELGRAAKLAPEFAKRNVKLIALSIDSVEDHLAWSKDINAYNGETPTEKLPFPIIDDKGRDLAILLGMLDPVEKDDNNMPVTARVVFIFGPDKKLKLSILYPATTGRNFDEILRVVDSLQLTGTKPVATPVDWKKGESVMVVPTLSEEEAKQCFPKGVFTKELPSGKKYLRYTPQP")
"binds"
>>> experimental_result("mouse PRDX2 with a HA tag (generated in house) (ligand, UniProt Q61171 1-198, looked up, also called PRDXs; not shown: HA tag) MASGNAQIGKSAPDFTATAVVDGAFKEIKLSDYRGKYVVLFFYPLDFTFVCPTEIIAFSDHAEDFRKLGCEVLGVSVDSQFTHLAWINTPRKEGGLGPLNIPLLADVTKSLSQNYGVLKNDEGIAYRGLFIIDAKGVLRQITVNDLPVGRSVDEALRLVQAFQYTDEHGEVCPAGWKPGSDTIKPNVDDSKEYFSKHN")
"binds"
